Assignment: determine reported time to which HSPC mobilization is extended after a single dose for the given compounds.
- System: hematopoietic stem/progenitor cells (HSPCs)
- Protocol: HSPC mobilization into peripheral blood, colony forming unit (CFU) assay
- Experimental setup: mice

Query: State its time to which HSPC mobilization is extended after a single dose for this compound: COc1cccc(OC)c1-c1ccc(C[C@H](CC(=O)c2c(Cl)cc(C(=O)O)cc2Cl)C(=O)O)cc1 [Example C1]
Reply: ≤ 2 h

Query: State its time to which HSPC mobilization is extended after a single dose for this compound: COCCOCCOCCOCCOCCOCCOCCOCCOCCOCCOCCOCCOCCOCCOCCOCCOCCOCCOCCOCCOCCOCCOCCOCCOCc1cc(OC)c(-c2ccc(C[C@H](NC(=O)c3c(Cl)cc(C(=O)O)cc3Cl)C(=O)O)cc2)c(OC)c1 [Example C17]
Reply: ≤ 2 h

Query: State its time to which HSPC mobilization is extended after a single dose for this compound: COCCOCCOCCOCc1cc(OC)c(-c2ccc(C[C@H](NC(=O)c3c(Cl)cc(C(=O)O)cc3Cl)C(=O)O)cc2)c(OC)c1 [Example C4]
Reply: ≤ 2 h

Query: State its time to which HSPC mobilization is extended after a single dose for this compound: COCCOCCOCCOCCOCCOCCOCCOCCOCc1cc(OC)c(-c2ccc(C[C@H](NC(=O)[C@@H]3CCCN3S(=O)(=O)c3cc(Cl)cc(Cl)c3)C(=O)O)cc2)c(OC)c1 [Example C12]
Reply: ≤ 2 h

---

- Target: VLA-4 (a4b1) (Homo sapiens (Human), UniProt P05556+P13612)
- Sequence (P13612 34-1032): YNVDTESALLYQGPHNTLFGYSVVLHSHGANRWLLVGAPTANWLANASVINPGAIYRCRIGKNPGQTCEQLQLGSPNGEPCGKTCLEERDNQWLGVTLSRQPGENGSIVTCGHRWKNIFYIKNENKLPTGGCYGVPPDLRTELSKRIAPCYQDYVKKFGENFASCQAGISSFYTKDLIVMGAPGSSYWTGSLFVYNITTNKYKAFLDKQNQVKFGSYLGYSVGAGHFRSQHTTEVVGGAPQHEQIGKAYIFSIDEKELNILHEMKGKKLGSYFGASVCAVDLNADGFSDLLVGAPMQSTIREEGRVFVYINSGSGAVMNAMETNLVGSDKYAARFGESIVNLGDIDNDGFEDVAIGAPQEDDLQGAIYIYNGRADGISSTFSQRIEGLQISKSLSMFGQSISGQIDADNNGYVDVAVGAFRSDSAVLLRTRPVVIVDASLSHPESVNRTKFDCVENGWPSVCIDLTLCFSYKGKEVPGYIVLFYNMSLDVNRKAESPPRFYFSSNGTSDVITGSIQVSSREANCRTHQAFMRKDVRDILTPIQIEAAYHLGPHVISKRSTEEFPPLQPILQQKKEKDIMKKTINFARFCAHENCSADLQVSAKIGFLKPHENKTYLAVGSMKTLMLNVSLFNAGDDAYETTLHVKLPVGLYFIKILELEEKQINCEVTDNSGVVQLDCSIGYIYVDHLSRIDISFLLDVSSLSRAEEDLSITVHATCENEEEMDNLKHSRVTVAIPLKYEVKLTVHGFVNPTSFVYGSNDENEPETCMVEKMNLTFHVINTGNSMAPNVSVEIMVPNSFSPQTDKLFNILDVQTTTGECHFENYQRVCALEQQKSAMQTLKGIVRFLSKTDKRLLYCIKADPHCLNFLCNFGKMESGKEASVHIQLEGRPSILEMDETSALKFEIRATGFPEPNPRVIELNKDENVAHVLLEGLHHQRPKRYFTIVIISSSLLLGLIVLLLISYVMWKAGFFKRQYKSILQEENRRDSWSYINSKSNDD
- Sequence (P05556 21-798): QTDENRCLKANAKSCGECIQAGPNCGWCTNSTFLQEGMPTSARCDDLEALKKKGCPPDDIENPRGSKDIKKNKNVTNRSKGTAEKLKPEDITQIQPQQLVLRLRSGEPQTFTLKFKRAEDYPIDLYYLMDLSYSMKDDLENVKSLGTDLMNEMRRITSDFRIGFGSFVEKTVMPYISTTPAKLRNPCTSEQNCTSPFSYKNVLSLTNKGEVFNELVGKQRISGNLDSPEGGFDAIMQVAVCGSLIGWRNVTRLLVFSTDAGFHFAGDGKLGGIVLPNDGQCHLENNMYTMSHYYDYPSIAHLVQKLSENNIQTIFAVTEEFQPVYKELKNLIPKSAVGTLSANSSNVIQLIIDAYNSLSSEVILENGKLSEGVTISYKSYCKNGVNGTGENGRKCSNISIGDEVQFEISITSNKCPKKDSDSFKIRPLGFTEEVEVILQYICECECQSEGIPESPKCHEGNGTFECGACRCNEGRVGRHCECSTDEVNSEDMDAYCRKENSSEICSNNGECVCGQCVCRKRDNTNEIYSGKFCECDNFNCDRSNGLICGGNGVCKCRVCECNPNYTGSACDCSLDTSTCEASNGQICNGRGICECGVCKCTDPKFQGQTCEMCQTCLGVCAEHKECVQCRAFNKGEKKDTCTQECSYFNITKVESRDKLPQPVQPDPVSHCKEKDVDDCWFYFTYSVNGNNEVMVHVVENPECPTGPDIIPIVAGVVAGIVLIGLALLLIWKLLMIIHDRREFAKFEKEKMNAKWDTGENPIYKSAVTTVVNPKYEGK
- Protocol: sVCAM flow cytometry cell-based assay (inhibition of soluble VCAM-1 binding to G2 ALL cells)
- Experimental setup: as listed in TABLE 7; read-out: sVCAM IC50
Assignment: determine reported pIC50 for the given compounds.
Bear in mind: pIC50 is minus log10 of a mol/L concentration; give just that figure.

Query: Quote VLA-4 (a4b1) (Homo sapiens (Human), UniProt P05556+P13612) pIC50 for entry COCCOCCOCCOCCOCCOCCOCCOCCOCCOCCOCCOCCOCCOCCOCCOCCOCCOCCOCCOCCOCCOCCOCCOCCOCc1cc(OC)c(-c2ccc(C[C@H](NC(=O)[C@@H]3CCCN3S(=O)(=O)c3cc(Cl)cc(Cl)c3)C(=O)O)cc2)c(OC)c1 [Example 1] .
Reply: 9.43

Query: Quote VLA-4 (a4b1) (Homo sapiens (Human), UniProt P05556+P13612) pIC50 for entry COc1cccc(OC)c1-c1ccc(C[C@H](CC(=O)c2c(Cl)cc(C(=O)O)cc2Cl)C(=O)O)cc1 [Example C1] .
Reply: 8.31

Query: Quote VLA-4 (a4b1) (Homo sapiens (Human), UniProt P05556+P13612) pIC50 for entry COc1cc(CO)cc(OC)c1-c1ccc(C[C@H](NC(=O)[C@@H]2CCCN2S(=O)(=O)c2cc(Cl)cc(Cl)c2)C(=O)O)cc1 [Example C8] .
Reply: 9.70

---

- Target: VLA-4 (a4b1) (Homo sapiens (Human), UniProt P05556+P13612)
- Protocol: sVCAM flow cytometry cell-based assay (inhibition of soluble VCAM-1 binding to G2 ALL cells)
- Experimental setup: as listed in TABLE 13, for the VLA-4 inhibitor alone; read-out: sVCAM IC50
Value kind: pIC50
Bear in mind: pIC50 is minus log10 of a mol/L concentration; give just that figure.

Query: Quote VLA-4 (a4b1) (Homo sapiens (Human), UniProt P05556+P13612) pIC50 for entry O=C(O)[C@H](Cc1ccc(OC(=O)N2CCCC2)cc1)NC(=O)[C@@H]1CCCN1S(=O)(=O)c1ccccc1 .
Reply: 7.33

---

Assignment: determine reported pIC50 for the given compounds.
- Target: VLA-4 (a4b1) (Homo sapiens (Human), UniProt P05556+P13612)
- Protocol: sVCAM flow cytometry cell-based assay (inhibition of soluble VCAM-1 binding to G2 ALL cells);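 note: compounds at 0.1 to 1000 nM preincubated 30 min with G2 ALL cells, then VCAM/Fc added for 30 min, bound VCAM-1 detected by PE secondary antibody, percent binding cells by flow cytometry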
- Experimental setup: inhibition of sVCAM-1 binding to human G2 ALL cells (TABLE 3); read-out: SVCAM-1; IC50
Bear in mind: pIC50 is minus log10 of a mol/L concentration; give just that figure.

Query: State its pIC50 for this compound: COCCOCCOCCOCCOCCOCCOCCOCCOCCOCCOCCOCCOCCOCCOCCOCCOCCOCCOCCOCCOCCOCCOCCOCCOCc1cc(OC)c(-c2ccc(C[C@H](NC(=O)c3c(Cl)cc(C(=O)O)cc3Cl)C(=O)O)cc2)c(OC)c1 [Example C17]
Reply: 8.83

Query: State its pIC50 for this compound: COc1cccc(OC)c1-c1ccc(C[C@H](NC(=O)[C@]2(C)CCCN2S(=O)(=O)c2cc(Cl)cc(Cl)c2)C(=O)O)cc1 [Example C5]
Reply: 8.45

Query: State its pIC50 for this compound: COCCOCCOCCOCCOCCOCCOCCOCCOCCOCCOCCOCCOCCOCCOCCOCCOCCOCCOCCOCCOCCOCCOCCOCCOCc1cc(OC)c(-c2ccc(C[C@H](NC(=O)[C@@H]3CCCN3S(=O)(=O)c3cc(Cl)cc(Cl)c3)C(=O)O)cc2)c(OC)c1 [Example 1]
Reply: 9.43

Query: State its pIC50 for this compound: COCCOCCOCCOCCOCCOCCOCCOCCOCCOCCOCCOCCOCc1cc(OC)c(-c2ccc(C[C@H](NC(=O)[C@@H]3CCCN3S(=O)(=O)c3cc(Cl)cc(Cl)c3)C(=O)O)cc2)c(OC)c1 [Example C13]
Reply: 9.17

Query: State its pIC50 for this compound: COc1cccc(OC)c1-c1ccc(C[C@H](CC(=O)c2c(Cl)cc(C(=O)O)cc2Cl)C(=O)O)cc1 [Example C1]
Reply: 8.30

Query: State its pIC50 for this compound: Cc1cccc(Cl)c1C(=O)N[C@@H](Cc1ccc(NC(=O)c2c(Cl)cccc2Cl)cc1)C(=O)O [RO0270608]
Reply: 7.01

Query: State its pIC50 for this compound: O=C(O)[C@H](Cc1ccc(OC(=O)N2CCCC2)cc1)NC(=O)[C@@H]1CCCN1S(=O)(=O)c1ccccc1 [BOP]
Reply: 7.33

Query: State its pIC50 for this compound: COc1cc(CO)cc(OC)c1-c1ccc(C[C@H](NC(=O)[C@@H]2CCCN2S(=O)(=O)c2cc(Cl)cc(Cl)c2)C(=O)O)cc1 [Example C8]
Reply: 9.70

Query: State its pIC50 for this compound: COCCOCCOCCOCCOCCOCCOCCOCCOCCOCCOCCOCCOCCOCCOCCOCCOCCOCCOCCOCCOCCOCCOCCOCCOCCOCCOCCOCCOCCOCCOCCOCCOCCOCCOCCOCCOCc1cc(OC)c(-c2ccc(C[C@H](NC(=O)[C@@H]3CCCN3S(=O)(=O)c3cc(Cl)cc(Cl)c3)C(=O)O)cc2)c(OC)c1 [Example 2]
Reply: 9.08

Query: State its pIC50 for this compound: COCCOCCOCCOCc1cc(OC)c(-c2ccc(C[C@H](NC(=O)[C@@H]3CCCN3S(=O)(=O)c3cc(Cl)cc(Cl)c3)C(=O)O)cc2)c(OC)c1 [Example C7]
Reply: 9.71

Query: State its pIC50 for this compound: COc1cccc(OC)c1-c1ccc(C[C@H](NC(=O)c2c(Cl)cccc2Cl)C(=O)O)cc1 [TR-14035]
Reply: 6.61

---

- Tested on: hematopoietic stem/progenitor cells (HSPCs)
- Protocol: HSPC mobilization into peripheral blood, colony forming unit (CFU) assay
- Experimental setup: mice, alone or in combination with Plerixafor and tGroβ, peripheral blood, 6 hr (TABLE 17)
Assignment: determine reported No. CFU (×10^3)/mL ± SD, 6 hr for the given compounds.

Query: State its No. CFU (×10^3)/mL ± SD, 6 hr for this compound: COCCOCCOCCOCCOCCOCCOCCOCCOCCOCCOCCOCCOCCOCCOCCOCCOCCOCCOCCOCCOCCOCCOCCOCCOCc1cc(OC)c(-c2ccc(C[C@H](NC(=O)[C@@H]3CCCN3S(=O)(=O)c3cc(Cl)cc(Cl)c3)C(=O)O)cc2)c(OC)c1
Reply: 2.97 ± 0.65 (×10^3)/mL

Query: State its No. CFU (×10^3)/mL ± SD, 6 hr for this compound: COCCOCCOCCOCCOCCOCCOCCOCCOCCOCCOCCOCCOCCOCCOCCOCCOCCOCCOCCOCCOCCOCCOCCOCCOCc1cc(OC)c(-c2ccc(C[C@H](NC(=O)c3c(Cl)cc(C(=O)O)cc3Cl)C(=O)O)cc2)c(OC)c1
Reply: 0.26 ± 0.13 (×10^3)/mL

Query: State its No. CFU (×10^3)/mL ± SD, 6 hr for this compound: COCCOCCOCCOCc1cc(OC)c(-c2ccc(C[C@H](NC(=O)c3c(Cl)cc(C(=O)O)cc3Cl)C(=O)O)cc2)c(OC)c1
Reply: 0.28 ± 0.09 (×10^3)/mL

Query: State its No. CFU (×10^3)/mL ± SD, 6 hr for this compound: COCCOCCOCCOCCOCCOCCOCCOCCOCc1cc(OC)c(-c2ccc(C[C@H](NC(=O)[C@@H]3CCCN3S(=O)(=O)c3cc(Cl)cc(Cl)c3)C(=O)O)cc2)c(OC)c1
Reply: 0.25 ± 0.08 (×10^3)/mL
